ASSAY TEXT: Metabolic stability in human liver microsomes
Format: in vitro ADME
CONDITIONS USED: human, liver microsomes
Entries annotated with measured microsomal CLint at 2 μM
PROPERTY: microsomal CLint at 2 μM

compound="COc1cc(-c2cccc3[nH]ncc23)cc(C=O)c1OCC(=O)N1CCC(Oc2cccc(C(=O)N(C)C)c2)C1 (stereo not drawn) [CDD-1714]" experimental_value="132 µL/min/mg"
compound="COc1cc(-c2cccc3[nH]ncc23)cc(C=O)c1OCC(=O)N(C)C [CDD-1713]" experimental_value="90.6 µL/min/mg"
compound="CCC[C@H](NC(=O)c1cccc2nc(-c3cncc4ccccc34)n([C@H]3C[C@H](C(=O)NC)C3)c12)c1ccc(OC(F)F)cc1 [CDD-1780]" experimental_value="76.1 µL/min/mg"

* * *

Known Ki of a selection of compounds
SYSTEM NAME: SARS-COV-2 M^pro (authentic N- and C-termini) (Severe acute respiratory syndrome coronavirus 2, UniProt P0DTD1)
ASSAY TEXT: biochemical
Format: biochemical
CONDITIONS USED: Kiapp (nM)^b, Table 3, column b (footnote not given)
PROPERTY: Ki (nM)

test_smiles=CCC[C@H](NC(=O)c1cccc2nc(-c3cncc4ccccc34)n(C3CCC3)c12)c1ccc(C(F)(F)F)cc1 property=Ki experimental_value=137
test_smiles=CCC[C@H](NC(=O)c1cccc2nc(-c3cncc4ccccc34)n([C@H]3C[C@H](C(=O)NC)C3)c12)c1cccc(C(F)(F)F)c1 property=Ki experimental_value=35.2

* * *

SYSTEM NAME: SARS-COV-2 M^pro (authentic N- and C-termini) (Severe acute respiratory syndrome coronavirus 2)
ASSAY TEXT: biochemical
Type: biochemical
CONDITIONS USED: Ki, app towards SARS-CoV-2 M^pro, athentic termini, authentic termini
Each record here notes measured Ki.
PROPERTY: Ki (nM)

test_smiles=CCC[C@H](NC(=O)c1cccc2nc(-c3cncc4ccccc34)n(C3CCC3)c12)c1ccc(C(F)(F)F)cc1 property=Ki experimental_value=137
test_smiles=CCC[C@H](NC(=O)c1cccc2nc(-c3cncc4ccccc34)n([C@H]3C[C@H](C(=O)NC)C3)c12)c1cccc(C(F)(F)F)c1 property=Ki experimental_value=35.2
test_smiles=CCC[C@H](NC(=O)c1cccc2nc(-c3cncc4ccccc34)n([C@H]3CC[C@H](C(=O)NC)C3)c12)c1ccc(C(F)(F)F)cc1 property=Ki experimental_value=663

* * *

SYSTEM NAME: SARS-COV-2 M^pro-His6 (Severe acute respiratory syndrome coronavirus 2)
ASSAY TEXT: biochemical
Format: biochemical
CONDITIONS USED: Table 3, column a (footnote not given)
PROPERTY: Kiapp (nM)^a

test_smiles=CCC[C@H](NC(=O)c1cccc2nc(-c3cncc4ccccc34)n(C(C)C)c12)c1ccc(C(F)(F)F)cc1 property="Kiapp (nM)^a" experimental_value=Inactive
test_smiles=CNC(=O)CCCn1c(-c2ccc3cccnc3n2)nc2cccc(C(=O)N[C@@H](C)c3ccc4ccccc4c3)c21 property="Kiapp (nM)^a" experimental_value=Inactive
test_smiles=CNC(=O)CCCn1c(-c2ccnc3ccccc23)nc2cccc(C(=O)N[C@@H](C)c3ccc4ccccc4c3)c21 property="Kiapp (nM)^a" experimental_value=Inactive

* * *

SYSTEM NAME: SARS-COV-2 M^pro (authentic N- and C-termini) (Severe acute respiratory syndrome coronavirus 2, UniProt P0DTD1)
ASSAY TEXT: biochemical
Assay type: biochemical
CONDITIONS USED: 25 nM enzyme, 15 μM fluorescent peptide, Morrison equation; Inactive = less than 50% inhibition at 25 μM compound
PROPERTY: M^pro Ki

test_smiles=COC(=O)c1cc(-c2cccc3[nH]ncc23)cc(OC)c1OCC(=O)N(C)C experimental_value=Inactive
test_smiles=CN(C)C(=O)COc1ccc(-c2cccc3[nH]ncc23)cc1C#N experimental_value=Inactive
test_smiles=COc1cc(-c2cccc3[nH]ncc23)ccc1OCC(=O)N(C)C experimental_value=Inactive
